ASSAY SUMMARY: Fraction of intact tracer (parent) in blood and kidney by TLC
Type: in vivo, mice
RUN CONDITIONS: mouse, kidney, intravenous; 30 min post-injection; mean ± SE; read-out: Kidney uptake, parent (corrected for metabolites)
READOUT KIND: tissue uptake at 0.5 h (%ID/g)
Numbers only, in %ID/g.

Q: # tissue uptake at 0.5 h lookup, item O=C(O)CC[C@H](NC(=O)N[C@@H](CCCCNC(=O)CCCCCO/N=C\c1ccc([18F])cc1)C(=O)O)C(=O)O [[^18F]2a]
Result: 22.7

---

I'd be grateful if you could share measured tissue uptake at 1 h for these entries.
ASSAY SUMMARY: Fraction of intact tracer (parent) in blood and kidney by TLC
Type: in vivo, mice
RUN CONDITIONS: mouse, kidney, intravenous; 60 min post-injection; mean ± SE; read-out: Kidney uptake, parent (corrected for metabolites)
Give bare numbers, in %ID/g.

O=C(O)CCC(NC(=O)NC(CCCCNC(=O)c1ccc([18F])nc1)C(=O)O)C(=O)O (centres unmarked) [[^18F]DCFPyL, reference compound]	17.6

Q: Quick one: tissue uptake at 1 h of O=C(O)CC[C@H](NC(=O)N[C@@H](CCCCNC(=O)CCCCCO/N=C\c1ccc([18F])cc1)C(=O)O)C(=O)O [[^18F]2a] ?
Result: 15.6

---

ASSAY SUMMARY: Fraction of intact tracer (parent) in blood and kidney by TLC
Type: in vivo, mice
RUN CONDITIONS: 60 min; mean ± SD, n = 2–5
Assign %Parent compound in blood (TLC analysis) to each entry below.
Answers are plain numbers, in %.

Required: %Parent compound in blood (TLC analysis), one value per compound below.
1. O=C(O)CC[C@H](NC(=O)N[C@@H](CCCCNC(=O)CO/N=C\c1ccc([18F])cc1)C(=O)O)C(=O)O [[^18F]1a, reference compound]
2. O=C(O)CC[C@H](NC(=O)N[C@@H](CCCCNC(=O)CCCCCO/N=C\c1ccc([18F])cc1)C(=O)O)C(=O)O [[^18F]2a]
3. O=C(O)CCC(NC(=O)NC(CCCCNC(=O)c1ccc([18F])nc1)C(=O)O)C(=O)O (centres unmarked) [[^18F]DCFPyL, reference compound]
4. O=C(O)CC[C@H](NC(=O)N[C@@H](CCCCNC(=O)CO/N=C\c1ccc([18F])nc1)C(=O)O)C(=O)O [[^18F]1b]
5. O=C(O)CC[C@H](NC(=O)N[C@@H](CCCCNC(=O)CCCCCO/N=C\c1ccc([18F])nc1)C(=O)O)C(=O)O [[^18F]2b]

Result:
1: 50.2; 2: 84.8; 3: 49.9; 4: 74.4; 5: 78.8

---

ASSAY SUMMARY: Fraction of intact tracer (parent) in blood and kidney by TLC
Type: in vivo, mice
RUN CONDITIONS: mouse, kidney, intravenous; 15 min post-injection; mean ± SE; read-out: Kidney uptake, parent (corrected for metabolites)
READOUT KIND: tissue uptake at 0.25 h (%ID/g)
Answers are plain numbers, in %ID/g.

O=C(O)CCC(NC(=O)NC(CCCCNC(=O)c1ccc([18F])nc1)C(=O)O)C(=O)O (centres unmarked) [[^18F]DCFPyL, reference compound]	17.1

Here is another molecule to look at.
Q: // tissue uptake at 0.25 h lookup, key: O=C(O)CC[C@H](NC(=O)N[C@@H](CCCCNC(=O)CCCCCO/N=C\c1ccc([18F])cc1)C(=O)O)C(=O)O [[^18F]2a]
Result: 11.8
